assay.overview: NCI Yeast Anticancer Drug Screen. Data for the cln2 rad14 strain (AID 165);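 note: 0% = growth equal to vehicle treated cultures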
cond: S. cerevisiae cln2 rad14 strain, at 50.0 µM, active compounds read high
Compounds without any hit were thinned out: in the full panel of roughly 79,000, 15% have a hit.
parameter: growth inhibition (%)
Numbers only, in %.

Sample records with growth inhibition:
smiles.repr	growth inhibition, %
CCCCSc1nc2c([nH]1)c(=S)n(C)c(=S)n2C	69.7
CC(C)NCC=C=Nc1ccccc1	40.5
Clc1ccc(CSCCc2ccncc2)cc1Cl	97.6

Sure, the documented growth inhibition for CCCN(CCC)C(=O)c1nc(N)nc(-c2ccc(OC)cc2)c1-c1ccc(OC)cc1 is 2.55

Recorded values, source PubChem BioAssay (NCI).
